# TEST TARGET: UniProt:Q15661
# Sequence (Q15661 31-275): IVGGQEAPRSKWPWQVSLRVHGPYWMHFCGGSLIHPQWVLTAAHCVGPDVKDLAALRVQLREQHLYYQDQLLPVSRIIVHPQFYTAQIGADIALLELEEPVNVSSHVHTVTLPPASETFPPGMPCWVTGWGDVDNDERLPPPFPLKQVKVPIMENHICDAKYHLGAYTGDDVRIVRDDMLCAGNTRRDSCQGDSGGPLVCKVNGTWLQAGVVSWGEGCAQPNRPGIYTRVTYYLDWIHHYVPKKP
# ASSAY REMARKS: Inactivation rate of mast cell tryptase, incubation method
# Assay type: biochemical
# CONDITION SUMMARY: Table I; 0.1M Hepes, 10% glycerol, 10 mM heparin, pH 7.5, 25° C., 7.1% DMSO; NI = no inhibition after 25 min of incubation
Rule: kobsd /[I] mast cell tryptase of 0.7 M⁻¹ s⁻¹ or more gives satisfied; anything lower gives not satisfied.

// below: answered compounds
C[C@H](NC(=O)[C@H](CC(=O)OC(C)(C)C)NC(=O)OCc1ccccc1)C(=O)NC(c1ccc(C(=N)N)cc1)P(=O)(Oc1ccccc1)Oc1ccccc1 (some centres unmarked) ... satisfied
CC(NC(=O)C(CCCCNC(=O)OC(C)(C)C)NC(=O)OCc1ccccc1)C(=O)NC(c1ccc(C(=N)N)cc1)P(=O)(Oc1ccccc1)Oc1ccccc1 (mixture of isomers) [Cbz--Lyz(Boc)--Ala-(4-AmPhGly)^P (OPh)2] ... satisfied
N=C(N)c1ccc(C(NS(=O)(=O)c2cccc3ccccc23)P(=O)(Oc2ccccc2)Oc2ccccc2)cc1 (racemic) [1-NpSO2-(4-AmPhGly)^P (OPh)2] ... satisfied

Query string: Record Cl.N=C(N)c1ccc(C(NC(=O)/C=C/c2ccccc2)P(=O)(Oc2ccccc2)Oc2ccccc2)cc1 (stereo not drawn) [trans-Cinnamoyl-(4-AmPhGly)^P (OPh)2] ; criterion: kobsd /[I] mast cell tryptase no lower than 0.7 M⁻¹ s⁻¹. Met?
Result string: not satisfied

###

# TEST TARGET: human thrombin (Homo sapiens, UniProt P00734)
# Construct: bovine trypsin, human thrombin
# Format: biochemical
# CONDITION SUMMARY: Table III; enzyme 0.06-0.5 μM, inhibitor 0.25-42 μM, 9% DMSO, 25° C.; NI = no inhibition
QUANTITY: kobs /[I] human thrombin

// below: answered molecules
NCCCCC(NC(=O)[C@@H]1CCCN1C(=O)CC(c1ccccc1)c1ccccc1)P(=O)(Oc1ccccc1)Oc1ccccc1 (stereo partly drawn) ... 27,450 ± 803 M^-1 s^-1
Cl.NCCCCC(NC(=O)[C@@H]1CCCN1C(=O)c1ccccc1Oc1ccccc1)P(=O)(Oc1ccccc1)Oc1ccccc1 (stereo partly drawn) ... 4,531 ± 140 M^-1 s^-1

Query string: Reported kobs /[I] human thrombin for NCCCCCC(NC(=O)C1CCCN1C(=O)CNS(=O)(=O)Cc1ccccc1)P(=O)(Oc1ccccc1)Oc1ccccc1 (mixture of isomers) : what is it?
Result string: 137 ± 12 M⁻¹ s⁻¹

###

# TEST TARGET: rat granzyme K (Rattus norvegicus, UniProt P49864)
# Sequence (P49864 26-258): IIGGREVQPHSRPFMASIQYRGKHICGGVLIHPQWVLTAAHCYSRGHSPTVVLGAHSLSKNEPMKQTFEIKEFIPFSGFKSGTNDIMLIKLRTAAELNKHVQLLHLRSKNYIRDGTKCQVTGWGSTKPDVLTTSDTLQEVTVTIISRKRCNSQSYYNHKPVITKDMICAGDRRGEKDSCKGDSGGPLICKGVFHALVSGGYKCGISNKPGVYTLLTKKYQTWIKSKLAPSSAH
# ASSAY REMARKS: Inactivation rate of rat granzyme K, incubation method
# Format: biochemical
# CONDITION SUMMARY: Table I; 0.1M Hepes, 0.01M CaCl2 pH 7.5, 25° C., 7.1% DMSO, substrate Z--Arg--SBzl; NI = no inhibition after 25 min of incubation
Listed here: items and their measured kobsd /[I] rat granzyme K.
Lab book: enter the figure in M⁻¹ s⁻¹, no units written.

Before answering, review these 5 worked examples.
CC(NC(=O)OCc1ccccc1)C(=O)NC(C)C(=O)NC(C)C(=O)NC(c1ccc(C(=N)N)cc1)P(=O)(Oc1ccccc1)Oc1ccccc1 (mixture of isomers) ... 7
Cl.N=C(N)c1ccc(C(NC(=O)c2cccc(Oc3ccccc3)c2)P(=O)(Oc2ccccc2)Oc2ccccc2)cc1 (stereo not drawn) ... 1
CC(NC(=O)C(CC(=O)O)NC(=O)OCc1ccccc1)C(=O)NC(c1ccc(C(=N)N)cc1)P(=O)(Oc1ccccc1)Oc1ccccc1 (mixture of isomers) ... 6
C[C@H](NC(=O)CCC(=O)O)C(=O)N[C@@H](C)C(=O)NC(c1ccc(C(=N)N)cc1)P(=O)(Oc1ccccc1)Oc1ccccc1 (stereo partly drawn) ... 0.3
N=C(N)c1ccc(C(NC(=O)CCC(=O)O)P(=O)(Oc2ccccc2)Oc2ccccc2)cc1 (stereo not drawn) ... 0.3

Please find the next compound below.
Query string: Dear colleague, I am looking for the recorded kobsd /[I] rat granzyme K of the following compound: CC(C)C(NC(=O)OCc1ccccc1)C(=O)NC(c1ccc(C(=N)N)cc1)P(=O)(Oc1ccccc1)Oc1ccccc1 (mixture of isomers)
Result string: 0.7
